# assayed system: human MC4R (Homo sapiens, UniProt P32245)
# Construct: expressed in transfected cells
# Sequence (P32245 whole entry): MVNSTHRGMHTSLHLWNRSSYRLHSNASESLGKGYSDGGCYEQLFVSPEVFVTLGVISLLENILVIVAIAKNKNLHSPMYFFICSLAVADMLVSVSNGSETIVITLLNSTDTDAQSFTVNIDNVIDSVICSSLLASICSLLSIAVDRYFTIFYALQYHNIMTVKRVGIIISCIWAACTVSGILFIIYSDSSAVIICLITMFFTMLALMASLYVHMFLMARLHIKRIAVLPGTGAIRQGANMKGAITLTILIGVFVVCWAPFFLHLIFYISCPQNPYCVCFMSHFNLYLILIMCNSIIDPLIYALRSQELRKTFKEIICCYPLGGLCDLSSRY
# procedure summary: 125NDP-α-MSH competitive binding to membranes of BHK cells expressing human MC4 receptor (filtration assay)
# experimental parameters: human MC4R, BHK cell membranes, 125NDP-α-MSH radioligand; read-out: MC4R binding Ki
Positions of bridges follow the written chain, without caps; N, C: chain ends. Non-standard residues stand in square brackets, D forms with d. Residues, ends and D or L forms follow the SMILES beside them. Phe(3,4-Cl2) = N[C@@H](Cc1ccc(Cl)c(Cl)c1)C(=O)O; Ser(ΨH,HPro) = O=C(O)[C@@H]1COCN1; Hyp = O=C(O)[C@@H]1C[C@@H](O)CN1; Cit = NC(=O)NCCC[C@H](N)C(=O)O
endpoint label: Ki (nM)
Respond with the bare value in nM.

[in] Name the recorded Ki of the compound listed here: C[C@@H]1NC(=O)[C@@H]2CSSC[C@H](NC(=O)[C@H](Cc3c[nH]c4ccccc34)NC(=O)[C@H](CCCCN)NC(=O)[C@H](CCCCN)NC(=O)[C@H](CCCCN)NC1=O)C(=O)N1COC[C@H]1C(=O)N[C@@H](Cc1c[nH]cn1)C(=O)N[C@H](Cc1ccccc1)C(=O)N[C@@H](Cc1c[nH]cn1)C(=O)N[C@@H](Cc1c[nH]c3ccccc13)C(=O)N2 [Chem. 103] (cyclo(AKKKWC[Ser(ΨH,HPro)]H[dF]HWC); disulfide 6-12)
[out] 0.06

[in] Look up Ki of C[C@@H]1NC(=O)[C@@H]2CSSC[C@H](NC(=O)[C@H](CCCNC(=N)N)NC(=O)[C@H](Cc3c[nH]cn3)NC(=O)[C@H](CCCCN)NC(=O)[C@H](CCCCN)NC1=O)C(=O)N1CCC[C@H]1C(=O)N[C@@H](Cc1c[nH]cn1)C(=O)N[C@H](Cc1ccccc1)C(=O)N[C@@H](Cc1c[nH]cn1)C(=O)N[C@@H](Cc1c[nH]c3ccccc13)C(=O)N2 [Chem. 95] (cyclo(AKKHRCPH[dF]HWC); disulfide 6-12) and report it.
[out] 0.07

[in] Give Ki for the following compound: C[C@@H]1NC(=O)[C@@H]2CSSC[C@H](NC(=O)[C@H](Cc3c[nH]c4ccccc34)NC(=O)[C@H](CCCNC(N)=O)NC(=O)[C@@H](Cc3ccccc3)NC(=O)[C@H](Cc3c[nH]cn3)NC1=O)C(=O)N[C@@H](C)C(=O)N[C@@H](CCCCN)C(=O)N[C@@H](CCCCN)C(=O)N[C@@H](CCCCN)C(=O)N[C@@H](Cc1c[nH]c3ccccc13)C(=O)N2 [Chem. 48] (cyclo(AH[dF][Cit]WCAKKKWC); disulfide 6-12)
[out] 0.15

[in] Give the measured Ki for CC(C)[C@H]1NC(=O)[C@@H]2CSSC[C@H](NC(=O)[C@H](Cc3c[nH]c4ccccc34)NC(=O)[C@H](CCCNC(=N)N)NC(=O)[C@@H](Cc3ccccc3)NC(=O)[C@H](Cc3c[nH]cn3)NC1=O)C(=O)N[C@H](C(C)C)C(=O)N[C@@H](Cc1c[nH]cn1)C(=O)N[C@H](Cc1ccccc1)C(=O)N[C@@H](CCCNC(=N)N)C(=O)N[C@@H](Cc1c[nH]c3ccccc13)C(=O)N2 [Chem. 34] (cyclo(C[dV]H[dF]RWC[dV]H[dF]RW); disulfide 1-7)
[out] 0.88

[in] Consider the compound C[C@@H]1NC(=O)[C@@H]2CSSC[C@H](NC(=O)[C@H](Cc3c[nH]c4ccccc34)NC(=O)[C@H](CCCCN)NC(=O)[C@H](CCCCN)NC(=O)[C@H](CCCCN)NC1=O)C(=O)N1C[C@H](O)C[C@H]1C(=O)N[C@@H](Cc1c[nH]cn1)C(=O)N[C@H](Cc1ccccc1)C(=O)N[C@@H](Cc1c[nH]cn1)C(=O)N[C@@H](Cc1c[nH]c3ccccc13)C(=O)N2 [Chem. 70] (cyclo(AKKKWC[Hyp]H[dF]HWC); disulfide 6-12) . State its measured Ki.
[out] 0.07

[in] # return recorded Ki for input C[C@@H]1NC(=O)[C@@H]2CSSC[C@H](NC(=O)[C@H](Cc3ccc(Cl)c(Cl)c3)NC(=O)[C@H](CCCNC(=N)N)NC(=O)[C@@H](Cc3ccccc3)NC(=O)[C@H](Cc3c[nH]cn3)NC1=O)C(=O)N[C@@H](C)C(=O)N[C@@H](CCCCN)C(=O)N[C@@H](CCCCN)C(=O)N[C@@H](CCCCN)C(=O)N[C@@H](Cc1c[nH]c3ccccc13)C(=O)N2 [Chem. 66] (cyclo(AH[dF]R[Phe(3,4-Cl2)]CAKKKWC); disulfide 6-12)
[out] 0.03
